// data source = PubChem BioAssay (NCI)

# Test system: SK-MEL-5 melanoma
# assay-notes: NCI tumour cell line growth inhibition, 48 h; in the data active = GI50 below about 0.43 µM; inactive = the rest
Could you please pick one outcome from this set? yes (1) (active), no (0) (inactive)

Task item: Which outcome was entered for the compound O=C(Nc1ccncc1)C(=O)c1cn(S(=O)(=O)c2cccc(Cl)c2)c2ccccc12 in this test?
Reply: no (0)

Task item: Test call for this compound, please: CC(=O)[CH-]C(=O)c1ccccc1.CC(=O)[CH-]C(=O)c1ccccc1.Cl.[O-]c1ccnc2ccccc12.[O-]c1ccnc2ccccc12.[Ti+4]
Reply: no (0)

Task item: Hello, I am checking results. What call was entered for Cc1nc2sc(C(=O)Nc3cccc(Br)c3C)c(N)c2cc1C(O)c1ccccc1 (centres undefined) ?
Reply: yes (1)

Task item: Answer briefly: the call reported for CCc1nc(C)cn1C(=O)OCc1nc2nc(Cl)nc(N3CCOCC3)c2[nH]1 in this assay.
Reply: no (0)

----------
# Tested on: LOX IMVI melanoma
# assay-notes: NCI tumour cell line growth inhibition, 48 h
Provide the recorded TGI for the entries that follow.

Task item: Which TGI reading was recorded for the molecule CSc1c(C#N)c(=O)n(N)c2c1c(C)nn2-c1ccccc1 ?
Reply: 52.6 µM

Task item: Reported TGI for O=Cc1cn(CCCCCCCCn2cc(C=O)c3ccccc32)c2ccccc12 : what is it?
Reply: > 10 µM

Task item: Bench note: what TGI did COc1ccc2c(c1)CCc1c-2[nH]c2cc3c(cc2c1=O)OCO3 show?
Reply: > 100 µM

Task item: Query (molecule): C/C(=N\NC(=O)c1ccncc1)c1sc(-n2nc(-c3ccccc3)cc2-c2ccccc2)nc1C ; field requested: TGI
Reply: > 100 µM

Task item: Any idea what its TGI is? The molecule is Cc1sc(C(=O)c2cncnc2N[C@@H]2C[C@H](COS(N)(=O)=O)[C@@H](O)C2)cc1[C@@H]1NCCc2ccc(Cl)cc21
Reply: 15.6 µM

----------
Assignment: determine reported TGI for the given molecules.
# Test system: NCI-H23 lung
# assay-notes: NCI tumour cell line growth inhibition, 48 h
Write the answer as a number in µM, unit excluded.

Task item: Recorded TGI for CN(C)NC1=C([N+](=O)[O-])C=NN(c2ccccc2)C1 , please?
Reply: 3.42

Task item: What does the data say about its TGI? Entry: C=C1C(=O)O[C@H]2[C@H]1CC/C(COC(=O)c1cccnc1N)=C\CC[C@@]1(C)O[C@@H]21
Reply: 24.5

Task item: Item CCCCCCCCOC(=O)C12Oc3ccc(-c4ccc5c(c4O)C(O)=C4C(=O)CC(C)C(O)C4(C(=O)OCCCCCCCC)O5)c(O)c3C(O)=C1C(=O)CC(C)C2O (centres undefined) has what recorded TGI?
Reply: 31.5

Task item: I would be grateful if you could share the reported TGI for CCc1nc(C)cn1C(=O)OCc1nc2nc(Cl)nc(N3CCOCC3)c2[nH]1 .
Reply: 3.35

----------
# Test system: MCF7 breast
# assay-notes: NCI tumour cell line growth inhibition, 48 h
Please provide measured TGI for the entries that follow.

Task item: Look at this molecule and give its reported TGI. O=C(Nc1nc(-c2ccc(Cl)cc2)cs1)c1cc(O)c(O)c(O)c1
Reply: > 5000 µM

Task item: Given the entry C=C(C)[C@H]1CC[C@@]23O[C@@H]2[C@@H](C[C@@]2(C)CC(=O)[C@H](CC(=O)C1)O2)OC(=O)[C@@]12CC[C@H](C(=C)C)CC(=O)C[C@H]4O[C@](C)(CC4=O)C[C@@H](OC3=O)[C@@H]1O2 , report its measured TGI.
Reply: > 100 µM

Task item: Would you mind telling me what TGI value was observed for COc1cccc2c1C(=O)c1c(O)c3c(c(O)c1C2=O)C[C@@](O)(/C(CO)=N/NC(=O)CCCCCN1C(=O)C=CC1=O)C[C@@H]3O[C@H]1C[C@H](N)[C@H](O)[C@H](C)O1 ?
Reply: > 100 µM

Task item: Requested read-out: TGI. Entry: Cn1ncc(C#N)c1-c1ccc2c(c1)CN([C@H](CN)Cc1cccc(F)c1)C2=O
Reply: 25.4 µM

Task item: Give its TGI value. Item: Cc1sc(C(=O)c2cncnc2N[C@@H]2C[C@H](COS(N)(=O)=O)[C@@H](O)C2)cc1[C@@H]1NCCc2ccc(Cl)cc21
Reply: 17.3 µM

Task item: For O=C(/C=C/c1ccccc1)c1cccc2ccccc12 , what is its reported TGI?
Reply: 11.1 µM

Task item: I would be grateful if you could share the reported TGI for C/C(=N\NC(=O)c1ccncc1)c1sc(-n2nc(-c3ccccc3)cc2-c2ccccc2)nc1C .
Reply: > 31.6 µM

Task item: Quick one: TGI of COCn1cc(C2=C(C)C(=O)C(C)=C(C)C2=O)cn1 ?
Reply: > 100 µM
